- SYSTEM TESTED: CD3ε homodimer protein (human, UniProt P07766 23-126, limits assumed)
- Sequence (P07766 23-126 limits assumed): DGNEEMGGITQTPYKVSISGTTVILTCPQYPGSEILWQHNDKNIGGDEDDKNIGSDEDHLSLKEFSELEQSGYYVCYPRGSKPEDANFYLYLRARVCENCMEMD
- ASSAY: SPR, immobilized CD3ε homodimer;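 further: biacore T200 surface plasmon resonance at 25 °C, antibody variants flowed as analytes over amine-coupled CD3ε homodimer on a CM4 chip, variant binding amount divided by that of GLS3000 antibody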
Known ratio of amounts bound (vs GLS3000) of a selection of binders

{"BINDER": "GLS3000 P95E (antibody, name in Kabat numbering, V domains shown, one-arm format as m2) VH: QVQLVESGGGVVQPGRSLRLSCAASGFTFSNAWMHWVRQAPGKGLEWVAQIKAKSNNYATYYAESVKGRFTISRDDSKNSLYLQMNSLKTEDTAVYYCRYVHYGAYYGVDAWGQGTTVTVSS VL: DIVMTQSPLSLPVTPGEPASISCRSSQSLVHSNRNTYLHWYQQKPGQAPRLLIYKVSNRFSGVPDRFSGSGSGTDFTLKISRVEAEDVGVYYCGQGTQVEYTFGQGTKLEIK", "ratio of amounts bound (vs GLS3000)": 0.39}
{"BINDER": "GLS3000 V94K (antibody, name in Kabat numbering, V domains shown, one-arm format as m2) VH: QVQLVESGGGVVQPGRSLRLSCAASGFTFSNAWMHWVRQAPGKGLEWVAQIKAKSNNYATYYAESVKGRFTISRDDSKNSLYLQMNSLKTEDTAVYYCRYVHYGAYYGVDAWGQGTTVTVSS VL: DIVMTQSPLSLPVTPGEPASISCRSSQSLVHSNRNTYLHWYQQKPGQAPRLLIYKVSNRFSGVPDRFSGSGSGTDFTLKISRVEAEDVGVYYCGQGTQKPYTFGQGTKLEIK", "ratio of amounts bound (vs GLS3000)": 0.57}
{"BINDER": "GLS3000 N28F (antibody, name in Kabat numbering, V domains shown, one-arm format as m2) VH: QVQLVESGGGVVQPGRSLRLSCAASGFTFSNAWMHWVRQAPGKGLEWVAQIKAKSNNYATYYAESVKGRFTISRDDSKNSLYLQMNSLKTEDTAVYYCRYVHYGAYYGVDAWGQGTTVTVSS VL: DIVMTQSPLSLPVTPGEPASISCRSSQSLVHSFRNTYLHWYQQKPGQAPRLLIYKVSNRFSGVPDRFSGSGSGTDFTLKISRVEAEDVGVYYCGQGTQVPYTFGQGTKLEIK", "ratio of amounts bound (vs GLS3000)": 0.46}
{"BINDER": "GLS3000 Y96L (antibody, name in Kabat numbering, V domains shown, one-arm format as m2) VH: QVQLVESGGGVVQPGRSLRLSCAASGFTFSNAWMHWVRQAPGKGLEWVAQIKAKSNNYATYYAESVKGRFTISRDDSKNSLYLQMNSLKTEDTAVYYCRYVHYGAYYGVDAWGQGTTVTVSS VL: DIVMTQSPLSLPVTPGEPASISCRSSQSLVHSNRNTYLHWYQQKPGQAPRLLIYKVSNRFSGVPDRFSGSGSGTDFTLKISRVEAEDVGVYYCGQGTQVPLTFGQGTKLEIK", "ratio of amounts bound (vs GLS3000)": 0.32}
{"BINDER": "GLS3000 Q93Y (antibody, name in Kabat numbering, V domains shown, one-arm format as m2) VH: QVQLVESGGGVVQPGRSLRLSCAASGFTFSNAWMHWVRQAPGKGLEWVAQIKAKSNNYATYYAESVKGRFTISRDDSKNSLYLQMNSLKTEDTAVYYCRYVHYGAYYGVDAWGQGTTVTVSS VL: DIVMTQSPLSLPVTPGEPASISCRSSQSLVHSNRNTYLHWYQQKPGQAPRLLIYKVSNRFSGVPDRFSGSGSGTDFTLKISRVEAEDVGVYYCGQGTYVPYTFGQGTKLEIK", "ratio of amounts bound (vs GLS3000)": 0.87}
